- Protocol: antimalarial activity against Dd2 strain (AID 2302);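 note: 0% = DMSO untreated growth and 100% = chloroquine plus artemisinin killed control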
- Assay conditions: P. falciparum Dd2 in RBCs, LDH growth readout, 72 h; at 2 µM; stronger effect = higher value
Some molecules, each annotated with its measured growth inhibition.
Property: growth inhibition (%)

[[record]]
molecule = "CN(C)CC(=O)Nc1ccc(Nc2nccc(NCC(O)c3ccccc3)n2)cc1 (stereo not given)"
observed = 2

[[record]]
molecule = "O=C(NC1CCC(N2CCN(c3cccc(C(F)(F)F)c3)CC2)CC1)c1cc2ccccc2[nH]1 (stereo not given)"
observed = 22

[[record]]
molecule = "CC(=O)N(C)/N=C/[C@H](CCc1ccccc1)NC(=O)[C@H](CC(C)C)NC(=O)c1cccc(OCCN2CCOCC2)c1"
observed = 65

[[record]]
molecule = "Cc1cc(N2CCCC2)nc(Nc2ccc(NC(=O)Nc3ccccc3)cc2)n1"
observed = 100

[[record]]
molecule = "Cc1ccc(NC(=O)c2ccc(CN3CCCN(CC4CCCCC4)CC3)cc2)cc1"
observed = 42

[[record]]
molecule = "OC(CNc1ccnc(Nc2ccc(Cl)cc2)n1)c1ccc(C(F)(F)F)cc1 (stereo not given)"
observed = 94

[[record]]
molecule = "Cn1nc2ccc3ccccc3c2nc1=N"
observed = 85

[[record]]
molecule = "CN(C)CCNC(=O)[C@H](CC1CCCCC1)NC(=O)c1ccc(O)c(-c2ccc(Cl)c(Cl)c2)c1"
observed = 97

[[record]]
molecule = "COc1ccc(CC(=O)Nc2ccc(-c3cccc(-c4nc5c(C)cccc5[nH]4)c3)cc2)cc1O"
observed = 30

[[record]]
molecule = "O=C1CSc2ccc(CNC3CCN(CCc4c(Cl)cnc5ccc(F)cc45)CC3)nc2N1"
observed = 52

[[record]]
molecule = "COc1c(OC)c(OC)c2ccccc2c1CNCCCCCCNCc1c(OC)c(OC)c(OC)c2ccccc12"
observed = 71

[[record]]
molecule = "CCCCCCN1CCC(CNCc2cccc([N+](=O)[O-])c2)CC1"
observed = 15

[[record]]
molecule = "O=C(NC1CCCCN(Cc2ccccc2O)C1)c1cc(F)cc(F)c1 (stereo not given)"
observed = 52

[[record]]
molecule = "Cc1cc(O)c(CN2CCN(Cc3cccs3)CC2)cc1C(C)C"
observed = 97

[[record]]
molecule = "CN1CCN(CC(=O)Nc2cccc(-c3ccc(-c4nc5ccc(C(F)(F)F)cc5[nH]4)cc3)c2)CC1"
observed = 94

[[record]]
molecule = "c1ccc(CCNCc2cccc(-c3ccccc3CNCc3ccc4c(c3)OCO4)c2)nc1"
observed = 80

[[record]]
molecule = "O=C(O)CCCN1CCCC(=C(c2ccccc2)c2ccccc2)C1"
observed = 2

[[record]]
molecule = "COc1ccc(N2C(=O)C3C(C2=O)C2(C)c4ccccc4C3(C)c3ccccc32)c([N+](=O)[O-])c1 (stereo not given)"
observed = 54

[[record]]
molecule = "O=C(CCc1cnc[nH]1)Nc1cccc(-c2ccc(-c3nc4ccccc4[nH]3)cc2)c1"
observed = 60

[[record]]
molecule = "OCCN1CCN(Cc2ccc(-c3cccc(-c4nc5ccc(F)cc5[nH]4)c3)cc2)CC1"
observed = 61


====

- Assay system: L-lactate dehydrogenase (Plasmodium falciparum (isolate CDC / Honduras))
- Protocol: PfLDH activity inhibition – cell lysate, 3D7 strain, counter-screen for P. falciparum growth inhibition project (AID 2304);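 note: 0% = vehicle and 100% = reference inhibitor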
- Assay conditions: P. falciparum 3D7 crude extract, LDH APAD/NBT absorbance; at 2 µM; stronger effect = higher value
Some compounds, each annotated with its measured inhibition.
Property: inhibition (%)

[[record]]
compound = "S=C(NN=Cc1ccccn1)Nc1ccc(Cl)c(Cl)c1"
display_unit = "%"
observed = 5

[[record]]
compound = "OCC1CCN(Cc2ccc(-c3ccc(-c4nc5ccc(C(F)(F)F)cc5[nH]4)cc3)cc2)CC1"
display_unit = "%"
observed = -2

[[record]]
compound = "Cc1cc(NN=Cc2ccc(F)cc2)c2cc(F)ccc2n1"
display_unit = "%"
observed = -4

[[record]]
compound = "CCCN1CCN(CC(O)CNC(=O)Nc2ccc(Br)cc2)CC1 (stereo not given)"
display_unit = "%"
observed = 0

[[record]]
compound = "Cc1cc(N2CCC(NS(=O)(=O)c3ccc(F)cc3)CC2)nc(Nc2cccc(C#N)c2)n1"
display_unit = "%"
observed = -4

[[record]]
compound = "Cc1cccc2[nH]c(-c3ccc(-c4ccc(CNCc5cccc(N)c5)cc4)cc3)nc12"
display_unit = "%"
observed = -9

[[record]]
compound = "Cc1cc(-c2ccc(CNCc3ccsc3)cc2)ccc1S(=O)(=O)NCCN1CCCC1"
display_unit = "%"
observed = -1

[[record]]
compound = "CC(C)(CNC(=O)C1CCN(CC2CCCCC2)CC1)c1nc(-c2ccc(Cl)c(O)c2)c(-c2ccncc2)[nH]1"
display_unit = "%"
observed = -3

[[record]]
compound = "CC(C)(C(=O)Nc1ccc(C2CCC(NCC3CC3)CC2)c(Cl)c1)c1ccc(C(F)(F)F)cc1 (stereo not given)"
display_unit = "%"
observed = -1

[[record]]
compound = "COc1ccc(-c2cccc(NC(=O)c3ccc(Cl)cc3)c2)cc1CN1CCC(O)CC1"
display_unit = "%"
observed = 3

